# TARGET_UNDER_TEST: canine CD3 on canine T cells (canine PBMC) (canine, UniProt P27597 22-202)
# Sequence (P27597 22-202 limits assumed, chain 1 of 3): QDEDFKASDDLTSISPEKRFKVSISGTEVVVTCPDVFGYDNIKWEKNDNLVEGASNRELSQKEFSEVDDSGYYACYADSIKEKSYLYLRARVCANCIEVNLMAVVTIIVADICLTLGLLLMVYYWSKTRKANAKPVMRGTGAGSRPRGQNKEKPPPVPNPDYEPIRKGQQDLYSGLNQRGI
# Sequence (chain, as listed by the source limits assumed, chain 2 of 3): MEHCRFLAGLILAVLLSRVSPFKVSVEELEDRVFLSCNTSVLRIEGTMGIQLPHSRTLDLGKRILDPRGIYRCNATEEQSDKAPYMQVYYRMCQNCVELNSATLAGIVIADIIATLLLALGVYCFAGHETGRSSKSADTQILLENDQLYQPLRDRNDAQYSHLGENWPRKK
# Sequence (chain, as listed by the source limits assumed, chain 3 of 3): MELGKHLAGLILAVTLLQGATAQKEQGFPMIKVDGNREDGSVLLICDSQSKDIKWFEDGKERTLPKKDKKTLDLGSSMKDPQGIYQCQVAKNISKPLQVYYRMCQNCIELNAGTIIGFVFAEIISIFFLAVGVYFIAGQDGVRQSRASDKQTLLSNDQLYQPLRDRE
# PROTOCOL_NOTES: cell-based or functional assay
EXPERIMENTAL_ENDPOINT: IFNy Concentration pg/ml, Day 9, PB
Answer shape: numeric part, then the unit.

Worked cases, IFNy Concentration pg/ml, Day 9, PB given:
Entry PMX183 (monospecific anti-canine CD3, canine IgG-B effector function deficient Fc) (antibody, V domains shown) VH: ELTLQESGPGLVKPSQTLSLTCVVSGGSVTNSYYWNWIRQRPGRELEWMGYWTGGTKYNPAFQGRISISADTAKNQFSLQLTSMTTEDTAVYYCARDRDRRVPHAYGYWGQGTLVTVSS VL: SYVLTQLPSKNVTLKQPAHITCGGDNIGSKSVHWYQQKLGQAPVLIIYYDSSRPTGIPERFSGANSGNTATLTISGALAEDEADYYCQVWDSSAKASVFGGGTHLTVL , IFNy Concentration pg/ml, Day 9, PB reported as 145 pg/mL

Entry PMX195 (monospecific anti-canine CD3, canine IgG-B effector function deficient Fc) (antibody, V domains shown) VH: EVQLVESGGDLVKPAGSLRLSCMASGFTFSSYSMSWVRQAPEKGLQLVAGINGDGSTTYYTDAVKGRFTISRDNAKNTVYLQMNNLRVEDSAMYYCAKGAGTGDYWGQGTLVTVSS VL: SYELTQPPSLNVTLRETAHITCGGDRIGSRYVQWIQQNPGQAPVVVIYKDSNRPTGIPERFSGANSGNTATLTISGALAEDEADYYCQVGDSGNWVFGGGTQLTVL , IFNy Concentration pg/ml, Day 9, PB reported as 627 pg/mL

Entry PMX178 (monospecific anti-canine CD3, canine IgG-B effector function deficient Fc) (antibody, V domains shown) VH: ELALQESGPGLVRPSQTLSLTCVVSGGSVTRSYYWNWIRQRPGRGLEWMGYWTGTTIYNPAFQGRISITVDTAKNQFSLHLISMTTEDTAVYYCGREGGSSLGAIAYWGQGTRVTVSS VL: SYVLTQLPSKNVTLKQPAHITCGGDNIGRKSVHWYQQKLGQAPVLIIYYDSSRPTGIPERFSGANSGNTATLTISGALAEDEADYYCQVWDSSAKAAVFGGGTHLTVL , IFNy Concentration pg/ml, Day 9, PB reported as 2110 pg/mL

Entry PMX194 (monospecific anti-canine CD3, canine IgG-B effector function deficient Fc) (antibody, V domains shown) VH: EVQLVESGGDLVKPGGSLRLSCVASGFTFSNYHMSWVRQAPGKGLQWVAYSNSGRMSTDYADAVKGRFTISRDNAKNTLYLQMNSLRPEDTAVYYCATVIYGLFDYWGQGTLVTVSS VL: DIVMTQTPLSLSVSPGEPASISCKASQSLLYSNGNTYLYWFRQKPGQSPQRLIYKVSKRDSGVPDRFSGSGSGTDFTLRIRRVEADDAGVYYCGQGTQDPYTFSQGTKLEIK , IFNy Concentration pg/ml, Day 9, PB reported as 568 pg/mL

Entry PMX167 (monospecific anti-canine CD3, canine IgG-B effector function deficient Fc) (antibody, V domains shown) VH: EVKLVESGGDLVKPGGSLRLSCMASGFTLNNYYMSWVRQAPGKGLQWVAYIKSGGSDTSYVDAVKGRFTISRDNAKNTLHLQMNSLRVEDTAVYYCATDGYIWAWGQGTLVTVSS VL: SYVLTQLPSKNVTLKQPAHITCGGDNIGSKSVHWYQQKLGQAPVLIIYYDNSRPTGIPERFSGAKSGNTATLTISGALAEDEADYYCQVWDSSSKAYVFGSGTQLTVL , IFNy Concentration pg/ml, Day 9, PB reported as 1290 pg/mL

Switching to the query record.
Entry PMX197 (monospecific anti-canine CD3, canine IgG-B effector function deficient Fc) (antibody, V domains shown) VH: ELTLQESGPGLVKPSQTLSLTCLVSGGSVTRSYYWNWIRQRPGRGLEWMGYWTGSTNYNPAFQGRISIIPDTAKNQFSLQLTSMTTDDTAIYFCAREGGRTLGAFADWGQGTLVTVSS VL: SYVLTQLPSKNVTLKQPAHITCGGDKIGSKNVHWYQQKLGQAPVLIIYYDSSRPTGIPERFSGANSGNTATLTISGALAEDEADYYCQVWDSSAKASVFGGGTHLTVL , IFNy Concentration pg/ml, Day 9, PB reported as 2340 pg/mL
